Hello, the source for this data is the supplement of paper PMC10567573, in case you need it.

B1: RTP4 (parent)
chain: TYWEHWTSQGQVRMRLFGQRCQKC

variants of: B1; experiment: protein stability index of a GFP-peptide fusion (GPS, HEK-293T) (PSI 1-6); higher = more stable; conditions: c terminus: a fixed tail appended;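 note: lentivirally expressed fusions sorted by FACS into six bins by GFP to DsRed ratio, PSI derived from sequencing read proportions per bin multiplied by bin number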

{"mutant.code": "L16V", "protein stability index": 1.81}
{"mutant.code": "V12C", "protein stability index": 2.42}
{"mutant.code": "W6C", "protein stability index": 2.25}
{"mutant.code": "Y2K", "protein stability index": 2.19}
{"mutant.code": "G18K", "protein stability index": 1.86}
{"mutant.code": "Q19G", "protein stability index": 1.45}
{"mutant.code": "F17L", "protein stability index": 1.85}
{"mutant.code": "R13W", "protein stability index": 2.11}
{"mutant.code": "V12H", "protein stability index": 2.21}
{"mutant.code": "R20N", "protein stability index": 1.34}
{"mutant.code": "G10W", "protein stability index": 2.07}
{"mutant.code": "W3E", "protein stability index": 1.77}
